# credit: ChEMBL document CHEMBL4842367

- ASSAYED TARGET: Protein cereblon/Androgen receptor (Homo sapiens, UniProt P10275+Q96SW2)
- Sequence (P10275 whole entry, looked up): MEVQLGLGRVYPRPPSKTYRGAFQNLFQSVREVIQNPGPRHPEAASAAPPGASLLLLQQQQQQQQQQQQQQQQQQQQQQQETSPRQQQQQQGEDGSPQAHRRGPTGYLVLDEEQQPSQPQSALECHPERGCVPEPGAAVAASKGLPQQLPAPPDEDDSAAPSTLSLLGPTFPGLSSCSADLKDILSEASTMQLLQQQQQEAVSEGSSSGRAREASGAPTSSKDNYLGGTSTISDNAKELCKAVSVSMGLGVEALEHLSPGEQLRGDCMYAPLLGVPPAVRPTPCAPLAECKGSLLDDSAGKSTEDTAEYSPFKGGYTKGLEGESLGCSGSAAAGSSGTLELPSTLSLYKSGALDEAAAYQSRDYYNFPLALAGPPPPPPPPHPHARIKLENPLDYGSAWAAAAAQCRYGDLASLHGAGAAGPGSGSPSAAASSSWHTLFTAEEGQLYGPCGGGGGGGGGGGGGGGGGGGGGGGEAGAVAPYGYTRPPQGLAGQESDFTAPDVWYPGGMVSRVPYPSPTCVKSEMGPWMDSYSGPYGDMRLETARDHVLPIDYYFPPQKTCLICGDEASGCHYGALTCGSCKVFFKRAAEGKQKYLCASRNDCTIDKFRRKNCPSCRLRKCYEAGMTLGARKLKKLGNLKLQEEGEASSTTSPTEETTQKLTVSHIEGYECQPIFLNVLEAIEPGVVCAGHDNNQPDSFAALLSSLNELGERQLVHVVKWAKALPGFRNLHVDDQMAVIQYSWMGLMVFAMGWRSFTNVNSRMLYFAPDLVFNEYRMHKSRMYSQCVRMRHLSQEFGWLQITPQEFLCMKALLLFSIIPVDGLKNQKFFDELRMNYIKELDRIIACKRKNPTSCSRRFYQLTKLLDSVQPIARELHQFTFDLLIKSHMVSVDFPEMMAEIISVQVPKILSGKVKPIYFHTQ
- Sequence (Q96SW2 whole entry, looked up): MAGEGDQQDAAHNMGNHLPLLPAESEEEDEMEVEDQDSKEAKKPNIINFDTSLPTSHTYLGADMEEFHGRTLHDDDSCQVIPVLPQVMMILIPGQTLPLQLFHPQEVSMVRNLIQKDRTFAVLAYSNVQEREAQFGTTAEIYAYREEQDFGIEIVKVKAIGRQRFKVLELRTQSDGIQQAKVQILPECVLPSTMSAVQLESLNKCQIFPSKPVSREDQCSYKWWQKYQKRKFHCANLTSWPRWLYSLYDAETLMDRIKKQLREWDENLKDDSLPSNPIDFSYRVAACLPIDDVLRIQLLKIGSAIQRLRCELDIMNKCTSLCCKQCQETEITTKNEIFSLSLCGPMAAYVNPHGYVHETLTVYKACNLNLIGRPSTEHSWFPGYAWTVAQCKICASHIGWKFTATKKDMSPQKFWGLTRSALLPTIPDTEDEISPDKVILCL
- PROCEDURE SUMMARY: Protac activity at CRBN/AR in human VCAP cells assessed as induction of AR degradation at 1 uM by western blot analysis relative to control
- Type: cell-based
- APPLIED CONDITIONS: time 24.0 hrs
ASSAY METRIC: Activity (%)

Study these solved cases before continuing.
CC1(C)[C@H](NC(=O)c2ccc(N3CCN(C4CC5(CCN(c6ccc7c(c6)C(=O)N(C6CCC(=O)NC6=O)C7=O)C5)C4)CC3)cc2)C(C)(C)[C@H]1Oc1ccc(C#N)c(Cl)c1 (stereo partly specified)    84
CC1(C)[C@H](NC(=O)c2ccc(NCCCCCCNc3cccc4c3C(=O)N(C3CCC(=O)NC3=O)C4=O)cc2)C(C)(C)[C@H]1Oc1ccc(C#N)c(Cl)c1 (stereo partly specified)    48
CC1(C)[C@H](NC(=O)c2ccc(C(=O)N3CCN(CC4CN(c5ccc6c(c5)C(=O)N(C5CCC(=O)NC5=O)C6=O)C4)CC3)cc2)C(C)(C)[C@H]1Oc1ccc(C#N)c(Cl)c1 (stereo partly specified)    79
CC1(C)[C@H](NC(=O)c2ccc(NCCCNc3ccc4c(c3)C(=O)N(C3CCC(=O)NC3=O)C4=O)cc2)C(C)(C)[C@H]1Oc1ccc(C#N)c(Cl)c1 (stereo partly specified)    70

P. CC1(C)[C@H](NC(=O)c2ccc(N3CCN(CCCCNc4cccc5c4C(=O)N(C4CCC(=O)NC4=O)C5=O)CC3)cc2)C(C)(C)[C@H]1Oc1ccc(C#N)c(Cl)c1 (stereo partly specified)
Q. CC1(C)[C@H](NC(=O)c2ccc(N3CCN(CCCCCNc4ccc5c(c4)C(=O)N(C4CCC(=O)NC4=O)C5=O)CC3)cc2)C(C)(C)[C@H]1Oc1ccc(C#N)c(Cl)c1 (stereo partly specified)
Inquiry: # argmax over Activity for candidates P and Q Record your answer as the label of the chosen record.
Reply text: Q
(Q: 60%, P: 32%)
